molecules and their reported Selectivity index
# experimentalProtocol: Specificity index, Ratio of CC50 for MCR5 cells to EC50 for HSV1
# Type: functional
# answer = number (no unit)

Below, each entry is followed by its recorded Selectivity index result.
1. CCCCCCCCCCCCCCCCOCCCOP(=O)(O)CC/C=C\Cn1ccc(N)nc1=O :: 2.38
2. CCCCCCCCCCCCCCCCOCCCOP(=O)(O)CC/C=C\Cn1cc(C)c(=O)[nH]c1=O :: 8.22
3. CCCCCCCCCCCCCCCCOCCCOP(=O)(O)CC/C=C\Cn1cnc2c(N)ncnc21 :: 0.96

Now for another entry.
Problem: Looking for the measured Selectivity index of `CCCCCCCCCCCCCCCCOCCCOP(=O)(O)CC/C=C\Cn1cnc2c(=O)nc(N)[nH]c21` , can you help?
Result: 2.1
